pIC50 by entry:
# test-system: H1047R PIK3CA enzyme (Homo sapiens, UniProt P42336, H1047R)
# Sequence (P42336 whole entry H1047R): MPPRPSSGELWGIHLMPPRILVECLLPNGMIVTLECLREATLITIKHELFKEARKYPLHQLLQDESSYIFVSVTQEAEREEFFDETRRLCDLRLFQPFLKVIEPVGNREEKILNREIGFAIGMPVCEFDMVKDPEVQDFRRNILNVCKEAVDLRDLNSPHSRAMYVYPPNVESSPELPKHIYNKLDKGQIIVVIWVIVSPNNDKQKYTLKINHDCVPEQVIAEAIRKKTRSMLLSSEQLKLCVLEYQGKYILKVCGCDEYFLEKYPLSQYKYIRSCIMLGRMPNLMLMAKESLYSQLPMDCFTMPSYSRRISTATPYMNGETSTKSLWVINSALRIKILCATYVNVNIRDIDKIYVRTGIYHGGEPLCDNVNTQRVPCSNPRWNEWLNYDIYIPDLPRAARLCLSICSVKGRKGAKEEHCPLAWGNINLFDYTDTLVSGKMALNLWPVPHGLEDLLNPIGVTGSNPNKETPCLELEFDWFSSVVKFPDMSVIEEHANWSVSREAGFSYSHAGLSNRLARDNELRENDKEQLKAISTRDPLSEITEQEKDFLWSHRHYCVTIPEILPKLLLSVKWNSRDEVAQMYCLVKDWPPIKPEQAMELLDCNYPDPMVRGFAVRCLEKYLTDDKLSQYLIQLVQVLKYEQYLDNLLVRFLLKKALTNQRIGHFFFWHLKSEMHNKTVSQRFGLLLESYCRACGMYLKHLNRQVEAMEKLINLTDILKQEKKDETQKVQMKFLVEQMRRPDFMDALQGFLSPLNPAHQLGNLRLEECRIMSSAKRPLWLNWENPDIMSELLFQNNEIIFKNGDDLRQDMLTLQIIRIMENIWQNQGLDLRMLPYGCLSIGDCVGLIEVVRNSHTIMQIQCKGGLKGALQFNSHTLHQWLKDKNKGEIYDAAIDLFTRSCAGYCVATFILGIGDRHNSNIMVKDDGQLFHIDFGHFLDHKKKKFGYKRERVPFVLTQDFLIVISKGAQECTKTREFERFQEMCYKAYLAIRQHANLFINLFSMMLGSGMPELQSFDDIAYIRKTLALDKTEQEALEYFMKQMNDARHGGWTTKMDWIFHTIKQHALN
# Sequence (P27986 whole entry partner): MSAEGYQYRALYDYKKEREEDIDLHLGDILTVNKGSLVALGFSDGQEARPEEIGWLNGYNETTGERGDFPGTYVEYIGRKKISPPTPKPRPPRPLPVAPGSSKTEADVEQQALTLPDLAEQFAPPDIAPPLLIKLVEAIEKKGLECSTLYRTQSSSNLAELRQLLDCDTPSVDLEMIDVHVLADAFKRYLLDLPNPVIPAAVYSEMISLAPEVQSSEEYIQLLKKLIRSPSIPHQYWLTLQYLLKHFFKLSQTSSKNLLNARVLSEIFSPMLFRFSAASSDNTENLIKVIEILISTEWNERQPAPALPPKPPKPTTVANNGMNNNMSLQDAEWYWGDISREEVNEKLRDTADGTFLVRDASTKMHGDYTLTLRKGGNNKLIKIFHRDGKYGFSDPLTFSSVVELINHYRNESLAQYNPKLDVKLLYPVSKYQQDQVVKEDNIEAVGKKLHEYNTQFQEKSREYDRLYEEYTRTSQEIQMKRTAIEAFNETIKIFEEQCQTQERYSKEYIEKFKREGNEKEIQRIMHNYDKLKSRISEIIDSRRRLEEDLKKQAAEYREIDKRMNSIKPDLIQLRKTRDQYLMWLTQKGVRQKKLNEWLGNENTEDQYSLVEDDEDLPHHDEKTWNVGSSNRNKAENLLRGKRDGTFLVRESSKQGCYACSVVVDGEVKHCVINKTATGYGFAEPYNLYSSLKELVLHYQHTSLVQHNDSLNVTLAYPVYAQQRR
# method-summary: ADP-Glo Biochemical PIK3CA Kinase Assay
pIC50: −log10 of the molar value.

Record excerpt, results attached:
Form field: reported pIC50 of O=C1NC(c2cc(F)ccc2Cl)c2c1cccc2-n1[nH]c(=O)c2ccccc21 (centres unmarked) 4.00 to 5.00

Form field: reported pIC50 of O=C1NC(c2cc(F)ccc2Cl)c2c(NC(=O)c3coc4c(F)cc(F)cc34)cc(Br)cc21 (centres unmarked) ≥ 7.00

Form field: reported pIC50 of O=C1NC(c2cc(F)ccc2Cl)c2c(NC(=O)N3CCC(C(F)(F)F)CC3)cc(Br)cc21 (centres unmarked) 5.00 to 6.00

Form field: reported pIC50 of O=C(Nc1cc(-c2ccc3ncnn3c2)cc2c1[C@@H](c1cc(F)ccc1C(F)F)NC2=O)c1cc(F)cc(C(F)(F)F)c1 (stereo in doubt) 5.00 to 6.00

Form field: reported pIC50 of O=C(Cc1c[nH]c2ccccc12)Nc1cc(Br)cc2c1C(c1cc(F)ccc1Cl)NC2=O (centres unmarked) 4.00 to 5.00

Form field: reported pIC50 of O=C(Cc1n[nH]c2ccccc12)Nc1cc(Br)cc2c1C(c1cc(F)ccc1Cl)NC2=O (centres unmarked) 4.00 to 5.00

Form field: reported pIC50 of Cc1ccccc1C1NC(=O)c2cccc(NC(=O)c3cccc(C(F)(F)F)c3F)c21 (centres unmarked) 4.00 to 5.00

Form field: reported pIC50 of O=C1NC(c2cc(F)ccc2Cl)c2c(NC(=O)N3CCc4ccncc43)cccc21 (centres unmarked) 4.00 to 5.00

Form field: reported pIC50 of N#CC1(COc2cc(NC(=O)N3C[C@@H](O)c4cc(F)ccc43)c3c(c2)C(=O)N[C@@H]3c2cc(F)ccc2Cl)CC1 (single isomer, unassigned) ≥ 7.00

Form field: reported pIC50 of Cc1ccccc1C1NC(=O)c2cc(CN)cc(NC(=O)c3csc4ccccc34)c21 (centres unmarked) ≥ 7.00

Now take the following molecule into account.
Form field: reported pIC50 of N#Cc1nc(-c2cc(NC(=O)c3cc(F)cc(C(F)(F)F)c3)c3c(c2)C(=O)NC3c2cc(F)ccc2Cl)cs1 (centres unmarked) ≥ 7.00
